system: Pseudomonas aeruginosa; test: Effect on Pseudomonas aeruginosa PA14 assessed as dead cells at 20 uM preincubated for 24 hrs measured after 2 hrs (reference value: 4%); format: organism-based
measured.quantity: Activity (%)
Answer in %, number only, no unit symbol.

Measured Activity, CC1(C)CC(C(=O)N2CCN(c3cc4c(cc3F)c(=O)c(C(=O)O)cn4C3CC3)CC2)CC(C)(C)N1[O] : 6

Measured Activity, CC1(C)CC(C(=O)N2CCN(c3cc4c(cc3F)c(=O)c(C(=O)O)cn4C3CC3)CC2)C(C)(C)N1[O] (stereo unspecified) : 0

Measured Activity, CON1C(C)(C)c2ccc(C(=O)N3CCN(c4cc5c(cc4F)c(=O)c(C(=O)O)cn5C4CC4)CC3)cc2C1(C)C : 2

Measured Activity, CON1C(C)(C)CC(C(=O)N2CCN(c3cc4c(cc3F)c(=O)c(C(=O)O)cn4C3CC3)CC2)C1(C)C (stereo unspecified) : 9

Measured Activity, CON1C(C)(C)CC(C(=O)N2CCN(c3cc4c(cc3F)c(=O)c(C(=O)O)cn4C3CC3)CC2)CC1(C)C : 16

Measured Activity, CC1(C)CC(N2CCN(c3cc4c(cc3F)c(=O)c(C(=O)O)cn4C3CC3)CC2)CC(C)(C)N1[O] : 50

----------
test system: Pseudomonas aeruginosa; test: Inhibition of planktonic growth of Pseudomonas aeruginosa PA14 after 24 hrs by broth microdilution method; type: organism-based; details: in vitro
Would you mind telling me the reported MIC of each entry?
Answer in µM, number only, no unit symbol.

Measured MIC, CC1(C)CC(C(=O)N2CCN(c3cc4c(cc3F)c(=O)c(C(=O)O)cn4C3CC3)CC2)C(C)(C)N1[O] (stereo unspecified) : 160

Measured MIC, CON1C(C)(C)CC(C(=O)N2CCN(c3cc4c(cc3F)c(=O)c(C(=O)O)cn4C3CC3)CC2)C1(C)C (stereo unspecified) : 311

Measured MIC, O=C(O)c1cn(C2CC2)c2cc(N3CCNCC3)c(F)cc2c1=O : 0.5

Measured MIC, CC1(C)CC(C(=O)N2CCN(c3cc4c(cc3F)c(=O)c(C(=O)O)cn4C3CC3)CC2)CC(C)(C)N1[O] : 312
